Biological target: Peroxisome proliferator-activated receptor gamma (Homo sapiens)
Sequence (P37231 whole entry): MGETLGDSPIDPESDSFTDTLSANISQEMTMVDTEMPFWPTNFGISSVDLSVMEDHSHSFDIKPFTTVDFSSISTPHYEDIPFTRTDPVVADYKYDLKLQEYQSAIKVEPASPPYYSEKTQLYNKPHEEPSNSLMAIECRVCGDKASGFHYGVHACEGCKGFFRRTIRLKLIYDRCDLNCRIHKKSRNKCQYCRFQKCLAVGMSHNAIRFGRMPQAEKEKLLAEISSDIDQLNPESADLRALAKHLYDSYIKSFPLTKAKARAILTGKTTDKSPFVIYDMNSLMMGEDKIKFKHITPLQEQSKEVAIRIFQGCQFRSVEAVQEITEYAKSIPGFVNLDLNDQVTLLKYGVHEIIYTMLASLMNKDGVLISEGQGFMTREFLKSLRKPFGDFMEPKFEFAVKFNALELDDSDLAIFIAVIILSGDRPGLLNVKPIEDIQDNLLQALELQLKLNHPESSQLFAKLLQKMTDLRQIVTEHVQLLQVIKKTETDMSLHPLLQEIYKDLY
Experiment: Agonist activity at human PPARgamma expressed in MG-63 cells by reporter gene-based transactivation assay
Format: functional, cell-based
pEC50: −log10 of the molar value.

[
  {
    "Molecule smiles": "COc1cc(O)c2c(c1C(=O)NCc1cc(CCCC(=O)O)cc3ccccc13)OC1=CC(O)=C(C(C)=O)C(=O)[C@]12C",
    "pEC50": 7.17
  },
  {
    "Molecule smiles": "COC(=O)CCCc1cc(CNC(=O)c2c(OC)cc(O)c3c2OC2=CC(O)=C(C(C)=O)C(=O)[C@]23C)c2ccccc2c1",
    "pEC50": 7.38
  },
  {
    "Molecule smiles": "COc1cc(O)c2c(c1C(=O)NCc1cc(CCC(=O)O)cc3ccccc13)OC1=CC(O)=C(C(C)=O)C(=O)[C@]12C",
    "pEC50": 6.49
  }
]
